# target_entity: T1, human CD73 (Homo sapiens, UniProt P21589)
# T1 construct: expressed in transfected cells; stably transfected in method 5.1)
# T1 sequence (P21589 27-549): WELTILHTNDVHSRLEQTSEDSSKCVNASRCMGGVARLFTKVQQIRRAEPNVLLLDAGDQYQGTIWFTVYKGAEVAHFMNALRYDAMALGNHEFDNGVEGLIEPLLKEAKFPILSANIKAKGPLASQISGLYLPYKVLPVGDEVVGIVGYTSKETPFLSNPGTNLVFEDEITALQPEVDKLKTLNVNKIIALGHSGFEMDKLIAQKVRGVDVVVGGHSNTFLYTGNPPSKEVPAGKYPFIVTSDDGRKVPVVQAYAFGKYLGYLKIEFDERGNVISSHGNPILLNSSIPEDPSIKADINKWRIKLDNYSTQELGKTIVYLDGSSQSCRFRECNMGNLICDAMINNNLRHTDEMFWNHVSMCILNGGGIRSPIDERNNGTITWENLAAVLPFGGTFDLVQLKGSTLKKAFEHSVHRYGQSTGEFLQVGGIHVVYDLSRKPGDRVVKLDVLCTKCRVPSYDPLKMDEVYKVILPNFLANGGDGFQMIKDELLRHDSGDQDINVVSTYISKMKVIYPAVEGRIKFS
# measurement_protocol: Flow cytometry binding of rabbit IgG hcAbs to human CD73-transfected HEK cells
# Set-up: key: binding to human (h) and mouse (m) CD73; binding to human (h) and mouse (m) CD73
# study_conditions: family representative clone; h = binds human CD73, m = binds mouse CD73
reported_property: specificity

INSERT INTO results (molecule, obs_value) VALUES
  ('SB142: CD73-specific alpaca VHH clone, family 2 in Tables 1-2, SEQ ID NO:73; tested as rabbit IgG hcAb (antibody, left off: a dimerising Fc or GST, tested as rabbit IgG hcAb) heavy: QVQLVESGGGLVQPGGSLRLSCAASGFTFINYHMSWLRQAPGKGLEWVSEIHSRGDITSYTNSVKGRFTISRDNAKNTLYLQMNSLKFDDTAVYYCARSRDLFGEGEYDYWGRGTQVTVSS', 'h'),
  ('SB144: CD73-specific alpaca VHH clone, family 4 in Tables 1-2, SEQ ID NO:70; tested as rabbit IgG hcAb (antibody, left off: a dimerising Fc or GST, tested as rabbit IgG hcAb) heavy: QVQLVESGGGLVQAGGSLRLSCAASGRTFSGSTMGWFRQAPGKERAFVAAIRWIGGTAKYGDSVKGRFTISIDNAKNTLYLQMNSLKPEDTAVYYCAATAGGPDYLGGRDIVYDYWGQGTQVTVSS', 'h + m'),
  ('SB139: CD73-specific alpaca VHH clone, family 6, SEQ ID NO:83; tested as rabbit or human IgG hcAb (antibody, left off: a dimerising Fc or GST, tested as rabbit or human IgG hcAb) heavy: QVQLQESGGGLVQAGGSLRLSCAASENIFNIYGMGWYRQAPGKLRDLVAKITSGGRTTYADSVKGRFTISGDNAKNTVYLQMNSLKPEDTAVYYCNSYYYWGQGTQVTVSS', 'h + m'),
  ('SB121: CD73-specific alpaca VHH clone, family 5, SEQ ID NO:82; tested as rabbit or human IgG hcAb (antibody, left off: a dimerising Fc or GST, tested as rabbit or human IgG hcAb) heavy: QVQLQESGGGLVQAGGSLRLSCAASGSIGSIIAMGWYRQGPGKQRELVARMFTDDGSTNYDDSVKGRFTISRDSAGTTVYLQMNSLKPEDTAVYYCNAQRRWNAYWGPGTQVTVSS', 'h + m');

Cited source: patent US20240417484A1
